- target.under.test: T1, IL-11 protein (UniProt P20809 22-199, limits assumed)
- T1 construct: also called IL-11 antigen
- T1 sequence (looked up): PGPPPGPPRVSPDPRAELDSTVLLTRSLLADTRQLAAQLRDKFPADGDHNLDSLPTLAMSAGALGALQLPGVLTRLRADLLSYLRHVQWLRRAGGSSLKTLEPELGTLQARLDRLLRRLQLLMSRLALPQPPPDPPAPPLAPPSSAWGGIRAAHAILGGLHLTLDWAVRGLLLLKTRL
- protocol: SPR (Biacore), antibody captured, 400 nM IL-11 as analyte
assay.metric: Kd (nM)
# unit: nM | format: bare number

// known answers, use as guide
Entry VH3 + VL3-scFv (scFv, V domains shown, Humanized 5-20E11-5F2; CHO supernatant; Called scFv, but heavy and light vectors were co-transfected) VH: QVQLVQSGAEVKKPGASVKVSCKASDYTFTNYWLGWVRQAPGQGLEWIGHIYPGGGYTNYNEKFKGRATLTADTSTSTVYMELSSLRSEDTAVYFCARVRSGNDALDFWGQGTLVTVSS VL: EIVLTQSPATLSLSPGERATLSCRASESVDEYGISFMNWFQQKPGQAPRLLIYSASNQGSGIPARFSGSGSGTDFTLTISSLEPEDFAVYFCQQSKEVPWTFGGGTKLEIK has what Kd?
9.76

Entry VH2 + VL3-scFv (scFv, V domains shown, Humanized 5-20E11-5F2; CHO supernatant; Called scFv, but heavy and light vectors were co-transfected) VH: QVQLVQSGAEVKKPGASVKVSCKASDYTFTNYWLGWVRQAPGQGLEWIGHIYPGGGYTNYNEKFKGRVTMTADTSTSTVYMELSSLRSEDTAVYFCARVRSGNDALDFWGQGTLVTVSS VL: EIVLTQSPATLSLSPGERATLSCRASESVDEYGISFMNWFQQKPGQAPRLLIYSASNQGSGIPARFSGSGSGTDFTLTISSLEPEDFAVYFCQQSKEVPWTFGGGTKLEIK has what Kd?
11.9

Here is the next item to consider.
Entry VH1 + VL1-scFv (scFv, V domains shown, Humanized 5-20E11-5F2; CHO supernatant; Called scFv, but heavy and light vectors were co-transfected) VH: QVQLVQSGAEVKKPGASVKVSCKASDYTFTNYWLGWVRQAPGQGLEWMGHIYPGGGYTNYNEKFKGRVTMTRDTSTSTVYMELSSLRSEDTAVYYCARVRSGNDALDFWGQGTLVTVSS VL: EIVLTQSPATLSLSPGERATLSCRASESVDEYGISFMNWYQQKPGQAPRLLIYSASNQGSGIPARFSGSGSGTDFTLTISSLEPEDFAVYYCQQSKEVPWTFGGGTKLEIK has what Kd?
21.6
